Assay: Inhibition of mouse full length GST-tagged BRAF V600E mutant-mediated Mek1 phosphorylation preincubated for 1 hr prior to substrate addition measured after 25 mins by PAGE analysis
measured parameter: IC50 (nM)

I: COc1ccc(C2=NN(C(=O)c3cccnc3Cl)C(c3ccc(Cl)cc3)C2)cc1 (stereo not given)
II: COc1ccc(C2=NN(C(=O)c3cccnc3Cl)C(c3ccc(OC)cc3)C2)cc1 (stereo not given)
Input: Select one: I or II . Criterion: greater recorded IC50. Answer by stating the label of the chosen item.
Output: II

1: COc1ccc(C2=NN(C(=O)c3ccc(Cl)nc3)C(c3ccc(Cl)cc3)C2)cc1 (stereo not given)
2: Cc1ccc(C(=O)N2N=C(c3ccc(Cl)cc3)CC2c2ccc(OCc3ccccc3)cc2)c(Cl)n1 (stereo not given)
Input: Kindly identify the item with the lower IC50 figure among these two: 1 and 2 Answer by stating the label of the chosen item.
Output: 1
(1: 510 nM, 2: 12900 nM)

----------
Test: Inhibition of mouse full length GST-tagged BRAF V600E mutant-mediated Mek1 phosphorylation preincubated for 1 hr prior to substrate addition measured after 25 mins by PAGE analysis
pIC50: −log10 of the molar value.
measured parameter: pIC50

Here's what some known entries look like.
Input: Answer with the recorded pIC50 of COc1ccc(C2=NN(C(=O)c3ccc(C)nc3Cl)C(c3ccc(Cl)cc3)C2)cc1 (stereo not given) only.
Output: 6.24

Input: Answer with the recorded pIC50 of COc1ccc(C2=NN(C(=O)c3ccc(C)nc3)C(c3ccc(Br)cc3)C2)cc1 (stereo not given) only.
Output: 5.37

Input: Answer with the recorded pIC50 of O=C(c1ccc(Cl)nc1)N1N=C(c2ccc(Cl)cc2)CC1c1ccc(Br)cc1 (stereo not given) only.
Output: 5.13

Input: Answer with the recorded pIC50 of Cc1ccc(C(=O)N2N=C(c3ccc(Cl)cc3)CC2c2ccc(Br)cc2)cn1 (stereo not given) only.
Output: 5.15

a: O=C(c1ccc(Cl)nc1)N1N=C(c2ccc(Cl)cc2)CC1c1ccc(Cl)cc1 (stereo not given)
b: COc1ccc(C2=NN(C(=O)c3ccc(C)nc3)C(c3ccc(OC)cc3)C2)cc1 (stereo not given)
c: COc1ccc(C2=NN(C(=O)c3cncc(Br)c3)C(c3ccc(Cl)cc3)C2)cc1 (stereo not given)
Input: Please list these in order of increasing pIC50. Thank you! As an answer, provide the labels arranged in the order called for.
Output: a, b, c
(a: 5.15, b: 5.47, c: 6.42)

----------
Assay: Inhibition of mouse full length GST-tagged BRAF V600E mutant-mediated Mek1 phosphorylation preincubated for 1 hr prior to substrate addition measured after 25 mins by PAGE analysis
measured parameter: IC50 (µM)

Input: Answer with the recorded IC50 of COc1ccc(C2=NN(C(=O)c3cccnc3Cl)C(c3ccc(Br)cc3)C2)cc1 (stereo not drawn) only.
Output: 5.57

Input: Answer with the recorded IC50 of O=C(c1cncc(Br)c1)N1N=C(c2ccc(Cl)cc2)CC1c1ccc(OCc2ccccc2)cc1 (stereo not drawn) only.
Output: 7.61

Input: Answer with the recorded IC50 of COc1ccc(C2=NN(C(=O)c3ccc(Cl)nc3)C(c3ccc(OCc4ccccc4)cc3)C2)cc1 (stereo not drawn) only.
Output: 6.78
